Listed compounds paired with reported solubility at 30 min
assay: Determination of solubility in deionized water (HPLC, external standard); conditions: 25 °C, water, thermodynamic from solid

Please review the following examples before continuing.
INSERT INTO results (compound, val) VALUES
  ('CC[C@@H]([C@H](C)O)n1ncn(-c2ccc(N3CCN(c4ccc(OC[C@@H]5CO[C@@](Cn6c[n+](C(C)OC(=O)N(C)c7ncccc7CNC)cn6)(c6ccc(F)cc6F)C5)cc4)CC3)cc2)c1=O (stereo partly drawn)', '> 50 mg/mL'),
  ('CC[C@@H]([C@H](C)OS(=O)(=O)[O-])n1ncn(-c2ccc(N3CCN(c4ccc(OC[C@@H]5CO[C@@](Cn6cncn6)(c6ccc(F)cc6F)C5)cc4)CC3)cc2)c1=O.[Na+]', '> 50 mg/mL');

Now let's try a different one.
Quickly give me recorded solubility at 30 min for CC[C@@H](C(C)OC(=O)OC(C)OC(=O)CN(C)S(=O)(=O)[O-])n1ncn(-c2ccc(N3CCN(c4ccc(OC[C@@H]5CO[C@@](Cn6cncn6)(c6ccc(F)cc6F)C5)cc4)CC3)cc2)c1=O.[Na+] (stereo partly drawn)
> 50 mg/mL

Source of measurements: patent US10517867B2
